assay: E. coli acrAB mutant growth effects, primary screen, E. coli filamentation inducers, strain DRC39, OD650, 48 h (AID 1179);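 further: screen aims at cell division blockers that make cells filament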; conditions: E. coli DRC39 delta-acrAB growth, higher = more signal, called active from +8 up or from −8 down
Label 0 (no) if z-score falls below 0.5; label 1 (yes) in every other case.

Before answering, review these 4 worked examples.
COCCOC(=O)N1C(=O)[C@@]2(c3cc(C#CC4=CCCCC4)ccc31)[C@H](C(=O)N1CCc3cc(OC)c(OC)cc3C1)[C@H]1C(=O)O[C@H](c3ccccc3)[C@H](c3ccccc3)N1[C@@H]2c1ccccc1OCCO    0 (no)
COCC1=C2[C@@H](CCc3ccccc3)OB(O)C[C@@H]2[C@@H]2C(=O)N(Cc3ccccc3)C(=O)[C@@H]2C1    0 (no)
COc1ccc(NN2C(C(O)c3ccc(OC)c(OCc4ccccc4)c3)C=CC3C(=O)N(C4CCCCC4)C(=O)C32)cc1 (centres undefined)    1 (yes)
CCOC(=O)C[C@H]1[C@H](OC(=O)c2ccccc2-c2ccccc2)[C@@H](NC(=O)Cc2ccc(OC)cc2)c2cc(OCCCO)ccc2N1C(=O)c1ccccc1    0 (no)

INPUT: Please indicate if the recorded z-score for O=C1O[C@@H](c2ccccc2)[C@@H](c2ccccc2)N2[C@@H](c3ccc(O)cc3)[C@]3(C(=O)Nc4ccc(C#CC5=CCCCC5)cc43)[C@@H](C(=O)O)[C@H]12 meets or exceeds 0.5.
OUTPUT: 1 (yes)

INPUT: Please indicate if the recorded z-score for COc1ccc(C#Cc2ccc3c(c2)[C@]2(C(=O)N3)[C@H](c3ccc(O)cc3)N3[C@H](c4ccccc4)[C@H](c4ccccc4)OC(=O)[C@H]3[C@@H]2C(=O)N2CCCCCCC2)cc1 meets or exceeds 0.5.
OUTPUT: 0 (no)

INPUT: Please indicate if the recorded z-score for O=C1O[C@H](c2ccccc2)[C@H](c2ccccc2)N2[C@H]1[C@@H](C(=O)O)[C@]1(C(=O)Nc3ccc(C#CC4(O)CCCCCC4)cc31)[C@H]2c1ccc(OCCO)cc1 meets or exceeds 0.5.
OUTPUT: 0 (no)

INPUT: Please indicate if the recorded z-score for CCC(CC)C(O)C1C=CC2C(=O)N(c3ccccc3)C(=O)C2N1Nc1ccc(C#N)cc1 (centres undefined) meets or exceeds 0.5.
OUTPUT: 0 (no)

INPUT: Please indicate if the recorded z-score for CC(C)c1ccc(NN2C(C(O)c3cccc(O)c3)C=CC3C(=O)N(c4ccccc4)C(=O)C32)cc1 (centres undefined) meets or exceeds 0.5.
OUTPUT: 0 (no)

INPUT: Please indicate if the recorded z-score for CCCNC(=O)[C@@H]1c2ccccc2C(=O)N(Cc2ccccc2)[C@H]1c1ccc(CO)cc1 meets or exceeds 0.5.
OUTPUT: 0 (no)

INPUT: Please indicate if the recorded z-score for COc1ccc([Si](C)(C)[C@@H]2[C@@H](CCn3cc([C@H](O)c4ccccc4)nn3)O[C@]3(C(=O)N(Cc4ccc(N5C(=O)c6cccc7cccc5c67)cc4)c4ccccc43)[C@H]2C)cc1 meets or exceeds 0.5.
OUTPUT: 0 (no)

INPUT: Please indicate if the recorded z-score for CN(C)C(=O)[C@]1(CCC(=O)OC(C)(C)C)N=C(c2ccc(OCCCO)cc2)O[C@@H]1c1ccccc1N=[N+]=[N-] meets or exceeds 0.5.
OUTPUT: 1 (yes)

INPUT: Please indicate if the recorded z-score for CCCCCCCCCCC(O)C1C=CC2C(=O)N(Cc3ccccc3)C(=O)C2N1n1cnnc1 (centres undefined) meets or exceeds 0.5.
OUTPUT: 0 (no)

INPUT: Please indicate if the recorded z-score for CCCCC=C[C@@H](NC(=O)c1ccco1)c1ccccc1 meets or exceeds 0.5.
OUTPUT: 1 (yes)
